Cited source for all entries: patent US20240067651A1

Test: Stability in Simulated Intestinal Fluid (SIF)
Assay type: in vitro ADME
Parameters: key: % parent compound remaining relative to 0-minute sample
Conditions: % @ 1 h (remaining) in simulated intestinal fluid
Reported SIF by item:
Field format: number, assumed % @ 1 h, no unit text.

Examples with answers:
>>> reported_result("CCCCN(C)C(=O)OCSc1nc(=O)c2[nH]ccc2n1CCOC(C)C.O=C(O)C(F)(F)F [Example 160]")
95
>>> reported_result("CCN(C)C(=O)OCSc1nc(=O)c2[nH]ccc2n1CCOC(C)C [Example 163]")
96
>>> reported_result("CC(C)OCCn1c(SCOC(=O)N(C)C)nc(=O)c2[nH]ccc21.O=C(O)C(F)(F)F [Example 164]")
99

Now examine the next entry.
Please give the measured SIF for this compound: C=CCN(C)C(=O)OCSc1nc(=O)c2[nH]ccc2n1CCOC(C)C.O=C(O)C(F)(F)F [Example 177]
89

====

Test: Stability in Simulated Gastric Fluid (SGF)
Type: in vitro ADME
Conditions: simulated gastric fluid, remaining at 1 h
# SGF per record follows
Kindly answer with a numeric value in % remaining, unit omitted.

>>> reported_result("CC(C)OCCn1c(SCOC(=O)N(C)CCOCCNC(=O)[C@H](N)C(C)C)nc(=O)c2[nH]ccc21.O=C(O)C(F)(F)F [Example 391]")
96
>>> reported_result("CC(C)OCCn1c(SCOC(=O)N(C)CCOCCN)nc(=O)c2[nH]ccc21.O=C(O)C(F)(F)F [Example 380]")
100
>>> reported_result("CC(C)OCCn1c(=S)[nH]c(=O)c2c1ccn2COC(=O)CCCOC(=O)[C@H](NC(=O)OC(C)(C)C)C(C)C [Example 355]")
99
>>> reported_result("CC(C)C[C@@H](N)C(=O)OCCC(=O)OCn1ccc2c1c(=O)[nH]c(=S)n2CCOC(C)C.O=C(O)C(F)(F)F [Example 368]")
100
>>> reported_result("CC(C)OCCn1c(SCOC(=O)CCCOC(=O)[C@H](N)C(C)C)nc(=O)c2c1ccn2COC(=O)CCCOC(=O)[C@H](N)C(C)C.O=C(O)C(F)(F)F.O=C(O)C(F)(F)F [Example 358]")
80

Can you look up the measured SGF of CSCC[C@@H](N)C(=O)OCCC(=O)OCn1ccc2c1c(=O)[nH]c(=S)n2CCOC(C)C.O=C(O)C(F)(F)F [Example 366] for me?
76

====

Assay: Stability in Simulated Intestinal Fluid (SIF)
Type: in vitro ADME
Design: key: % parent compound remaining relative to 0-minute sample
Details: % @ 1 h (remaining) in simulated intestinal fluid
Strictly below 80 % @ 1 h in SIF: 1. Otherwise: -1.

Example results:
>>> category_label("CC(C)OCCn1c(SCOC(=O)N(C)C(C)(C)C)nc(=O)c2[nH]ccc21.O=C(O)C(F)(F)F [Example 167]")
-1
>>> category_label("CC(C)CN(C)C(=O)OCSc1nc(=O)c2[nH]ccc2n1CCOC(C)C [Example 172]")
-1
>>> category_label("CCCCN(C)C(=O)OCSc1nc(=O)c2c(ccn2COC(=O)N(C)CCCC)n1CCOC(C)C [Example 162]")
-1
>>> category_label("CC(C)OCCn1c(SCOC(=O)N(C)C(C)C)nc(=O)c2[nH]ccc21.O=C(O)C(F)(F)F [Example 166]")
-1
>>> category_label("CC(C)OCCn1c(=S)[nH]c(=O)c2c1ccn2COC(=O)c1ccccc1.O=C(O)C(F)(F)F [Example 157]")
1
>>> category_label("CCCC(=O)OCSc1nc(=O)c2c(ccn2COC(=O)CCC)n1CCOC(C)C [Example 155]")
1

For the next question, use this compound.
Could you please tell me whether SIF recorded for CCC(=O)OCn1ccc2c1c(=O)[nH]c(=S)n2CCOC(C)C [Example 156] is less than 80 % @ 1 h?
1

====

# Lookup of reported Papp at 90 min, 10 µM keyed by entry
Assay: Caco-2 Permeability Assay
Format: in vitro ADME, human
Details: human, Caco-2, pH 7.4, Caco-2 monolayer

# count of solved cases: 5
>>> reported_result("CC(C)OCCn1c(SCOC(=O)N(C)c2ccccc2F)nc(=O)c2[nH]ccc21")
"11.7 ×10⁻⁶ cm/s"
>>> reported_result("CC(C)OCCn1c(=S)[nH]c(=O)c2c1ccn2COC(=O)CCNC(=O)[C@H](CCc1ccccc1)NC(=O)OC(C)(C)C.O=C(O)C(F)(F)F")
"11.7 ×10⁻⁶ cm/s"
>>> reported_result("CC(C)OCCn1c(=S)[nH]c(=O)c2c1ccn2COC(=O)CCCOC(=O)[C@H](N)C(C)C")
"11.3 ×10⁻⁶ cm/s"
>>> reported_result("CC(C)OCCn1c(=S)[nH]c(=O)c2c1ccn2COC(=O)CCCCCCCCCCCCCCC(=O)OC(C)C")
"0.25 ×10⁻⁶ cm/s"
>>> reported_result("CC(C)OCCn1c(=S)n(COC(=O)OCCOCCNC(=O)OC(C)(C)C)c(=O)c2c1ccn2COC(=O)OCCOCCNC(=O)OC(C)(C)C")
"19.3 ×10⁻⁶ cm/s"

If you can, please state the reported Papp at 90 min, 10 µM value of CC(C)OCCn1c(=S)[nH]c(=O)c2c1ccn2COC(=O)CCNC(=O)[C@@H](N)Cc1c[nH]c2ccccc12.O=C(O)C(F)(F)F .
0.23 ×10⁻⁶ cm/s

Value lookup for Papp at 90 min, 10 µM; key = CC(C)OCCn1c(=S)[nH]c(=O)c2c1ccn2COC(=O)c1ccccc1.O=C(O)C(F)(F)F
7.3 ×10⁻⁶ cm/s

What Papp at 90 min, 10 µM value was documented for this compound, CSCC[C@H](NC(=O)OCC1c2ccccc2-c2ccccc21)C(=O)NCCCCC(=O)OCn1ccc2c1c(=O)[nH]c(=S)n2CCOC(C)C.O=C(O)C(F)(F)F ?
0.985 ×10⁻⁶ cm/s

Item CC(C)OCCn1c(=S)[nH]c(=O)c2c1ccn2COC(=O)CN has what recorded Papp at 90 min, 10 µM?
1.55 ×10⁻⁶ cm/s

Any idea what its Papp at 90 min, 10 µM is? The compound is Cc1cccc(OC(=O)OCn2ccc3c2c(=O)[nH]c(=S)n3CCOC(C)C)c1
0.723 ×10⁻⁶ cm/s

Give its Papp at 90 min, 10 µM value. Item: CC(C)OCCn1c(SCOC(=O)N(C)C)nc(=O)c2[nH]ccc21.O=C(O)C(F)(F)F
4.2 ×10⁻⁶ cm/s

Entry Cc1cccc(N(C)C(=O)OCSc2nc(=O)c3[nH]ccc3n2CCOC(C)C)c1 has what Papp at 90 min, 10 µM?
21.6 ×10⁻⁶ cm/s

====

# Caco-2 Papp per entry
System: Caco-2 monolayer
Assay: Caco-2 Permeability Assay
Format: in vitro ADME, human
Details: Caco-2 monolayer
Report only the number, with the unit nm/s understood.

>>> reported_result("CC(C)OCCn1c(=S)n(COC(=O)OCCOCCOC(N)=O)c(=O)c2[nH]ccc21")
4.77

Pending molecule:
Hello, I am looking for reported Caco-2 Papp with Caco-2 monolayer for CC(C)OCCn1c(=S)[nH]c(=O)c2c1ccn2COC(=O)[C@@H]1CCN(C(=O)OC(C)(C)C)C1 . Could you help?
121

====

Assay: Stability in Simulated Intestinal Fluid (SIF)
Type: in vitro ADME
Design: key: % parent compound remaining relative to 0-minute sample
Conditions: simulated intestinal fluid, at 1 h
measure_name: SIF (% remaining)
Give the value in % remaining but do not write % remaining after it.

See these solved cases before continuing.
>>> reported_result("Cc1ccccc1N(C)C(=O)OCn1ccc2c1c(=O)[nH]c(=S)n2CCOC(C)C")
100
>>> reported_result("Cc1ccccc1N(C)C(=O)OCn1c(=O)c2c(ccn2COC(=O)N(C)c2ccccc2C)n(CCOC(C)C)c1=S")
99
>>> reported_result("CC(C)OCCn1c(=S)[nH]c(=O)c2c1ccn2COC(=O)Oc1ccccc1F")
1
>>> reported_result("Cc1cccc(N(C)C(=O)OCn2ccc3c2c(=O)[nH]c(=S)n3CCOC(C)C)c1")
80
>>> reported_result("CC(C)OCCn1c(=S)[nH]c(=O)c2c1ccn2C(=O)OC(C)C")
40
>>> reported_result("COc1ccc(N(C)C(=O)OCSc2nc(=O)c3[nH]ccc3n2CCOC(C)C)cc1 [Example 241]")
97

Now consider a different compound.
Which SIF value belongs to Cc1ccc(N(C)C(=O)OCSc2nc(=O)c3[nH]ccc3n2CCOC(C)C)cc1 ?
98

====

Experiment: Stability in Simulated Intestinal Fluid (SIF)
Format: in vitro ADME
Conditions: % remaining at 1 h in simulated intestinal fluid
Listed molecules paired with reported SIF
Quick reminder: number only, in % remaining, skip the unit.

A selection of reference data follows.
>>> reported_result("CC(C)OCCn1c(SCOC(=O)OCCOCCN)nc(=O)c2c1ccn2COC(=O)OCCOCCN.O=C(O)C(F)(F)F.O=C(O)C(F)(F)F")
57
>>> reported_result("CC(C)OCCn1c(=S)[nH]c(=O)c2c1ccn2COC(=O)CCNC(=O)[C@@H]1CCC(=O)N1C.O=C(O)C(F)(F)F")
97
>>> reported_result("CC[C@H](C)[C@H](N)C(=O)NCCCCC(=O)OCn1ccc2c1c(=O)[nH]c(=S)n2CCOC(C)C.O=C(O)C(F)(F)F")
89

Fill in the blank: the reported SIF of CC(C)OCCn1c(=S)[nH]c(=O)c2c1ccn2COC(=O)CCNC(=O)[C@@H](N)Cc1ccc(O)cc1.O=C(O)C(F)(F)F is ____.
75

I am curious: what SIF value has been reported for CC(C)OCCn1c(=S)[nH]c(=O)c2c1ccn2COC(=O)CCCCNC(=O)[C@@H]1CCC(=O)N1C.O=C(O)C(F)(F)F ?
98

What SIF value was documented for this molecule, CC(C)OCCn1c(=S)[nH]c(=O)c2c1ccn2COC(=O)CCCCNC(=O)[C@@H](N)[C@@H](C)O.O=C(O)C(F)(F)F ?
91
